List of pIC50 values.
target: UniProtKB P21397; assay: Inhibition of human MAO-A measure after 1 hr by microplate reader analysis
pIC50: −log10 of the molar value.

// worked examples, pIC50 included
| structure.smiles.string | readout.value |
| --- | --- |
| COc1cc2c(cc1OC)CN(c1ccc(F)cc1)CC2 | < 4.00 |
| COc1cc2c(cc1OC)CN(c1ccc(C=O)cc1)CC2 | < 4.00 |

We now examine a further compound.
Can you look up the measured pIC50 of COc1cc2c(cc1OC)CN(c1cc(F)cc(F)c1)CC2 for me?
< 4.00

* * *

molecular target: Amine oxidase [flavin-containing] A (Homo sapiens); test: Inhibition of recombinant human MAO-A
Sequence (P21397 whole entry): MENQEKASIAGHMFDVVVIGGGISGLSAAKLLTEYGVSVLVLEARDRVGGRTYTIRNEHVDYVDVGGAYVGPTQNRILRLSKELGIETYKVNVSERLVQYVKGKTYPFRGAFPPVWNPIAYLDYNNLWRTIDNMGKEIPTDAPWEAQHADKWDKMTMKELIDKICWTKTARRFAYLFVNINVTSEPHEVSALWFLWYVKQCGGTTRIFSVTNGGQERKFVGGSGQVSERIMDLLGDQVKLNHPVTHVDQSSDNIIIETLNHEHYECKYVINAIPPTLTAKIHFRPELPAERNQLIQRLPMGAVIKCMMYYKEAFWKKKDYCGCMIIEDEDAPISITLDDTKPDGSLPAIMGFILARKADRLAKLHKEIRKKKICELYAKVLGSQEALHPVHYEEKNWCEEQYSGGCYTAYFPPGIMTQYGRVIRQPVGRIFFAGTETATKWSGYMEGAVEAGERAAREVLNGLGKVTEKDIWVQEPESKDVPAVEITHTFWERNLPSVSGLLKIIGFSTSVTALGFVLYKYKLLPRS
readout.label: IC50 (µM)
Write the number in µM without appending the unit.

API: value(readout=IC50, system=Amine oxidase [flavin-containing] A (Homo sapiens)) for record COc1cc2c(cc1OC)CN(CCCOc1ccc(C(C)=O)c(O)c1)CC2
8.1

* * *

biological target: MAO-B (amine oxidase [flavin-containing] B) (Homo sapiens, UniProt P27338); experiment: Inhibition of human MAO-B assessed as residual activity at 10 uM relative to control; conditions: read-out: Activity
Sequence (P27338 whole entry): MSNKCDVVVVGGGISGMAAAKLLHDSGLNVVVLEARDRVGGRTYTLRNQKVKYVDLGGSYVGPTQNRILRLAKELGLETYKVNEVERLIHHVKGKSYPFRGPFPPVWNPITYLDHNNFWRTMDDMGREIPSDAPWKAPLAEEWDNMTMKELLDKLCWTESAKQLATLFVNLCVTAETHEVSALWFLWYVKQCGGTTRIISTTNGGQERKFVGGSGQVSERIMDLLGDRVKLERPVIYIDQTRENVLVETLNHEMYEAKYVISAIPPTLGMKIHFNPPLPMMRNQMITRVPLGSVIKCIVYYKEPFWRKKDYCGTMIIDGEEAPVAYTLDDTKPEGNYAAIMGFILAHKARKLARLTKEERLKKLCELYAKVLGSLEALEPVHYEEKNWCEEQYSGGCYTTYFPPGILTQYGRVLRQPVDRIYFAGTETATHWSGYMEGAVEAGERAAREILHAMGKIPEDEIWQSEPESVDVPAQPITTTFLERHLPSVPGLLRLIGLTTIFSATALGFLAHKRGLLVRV
readout.label: activity at 10 µM (%)

// worked examples, activity at 10 µM included
| structure.smiles.string | activity at 10 µM / % |
| --- | --- |
| COC(=O)c1ccccc1N1CCc2cc(OC)c(OC)cc2C1 | 103 |
| COc1cc2c(cc1OC)CN(c1ccccn1)CC2 | 89 |
| COc1cc2c(cc1OC)CN(c1cc(C(F)(F)F)cc(C(F)(F)F)c1)CC2 | 86 |

[I] COc1cc2c(cc1OC)CN(c1cc(F)cc(F)c1)CC2
[II] COc1cc2c(cc1OC)CN(c1ccc(C=O)cc1)CC2
# returns the entry with the larger activity at 10 µM; inputs I and II // respond with label for picked entry
I
(I: 24%, II: 14%)

* * *

experiment: Lipophilicity, log D of the compound at pH 7.4; assay type: physicochemical; settings: buffer
readout.label: logD

// worked examples, logD included
| molecule | logD |
| --- | --- |
| COc1cc2c(cc1OC)CN(c1ccc(C=O)cc1)CC2 | 3.7 |
| COc1cc2c(cc1OC)CN(c1ccccn1)CC2 | 3.7 |
| COc1cc2c(cc1OC)CN(c1ccc(CO)cc1)CC2 | 3.1 |
| COC(=O)c1ccccc1N1CCc2cc(OC)c(OC)cc2C1 | 4.3 |
| COc1cc2c(cc1OC)C(C)N(c1ccc(CO)cc1)CC2 (centres undefined) | 3.4 |
| COc1cc2c(cc1OC)C(C)N(c1ccc(F)cc1)CC2 (centres undefined) | 4.8 |

[1] COc1cc2c(cc1OC)C(C)N(c1ccc(C=O)cc1)CC2 (centres undefined)
[2] COc1cc2c(cc1OC)CN(c1ccc(C(=O)O)cc1)CC2
// pick min by logD: 1 , 2 // respond with label for picked entry
2
(2: 2.5, 1: 4)

* * *

assay: Metabolic stability in human liver microsome assessed as compound remaining at 500 uM measured at 10 mins by LC-MS/MS method; assay type: ADME; settings: liver microsomes, read-out: Stability
readout.label: remaining at 10 min (%)

| compound | readout.value |
| --- | --- |
| COc1cc2c(cc1OC)CN(c1ccc(C(=O)O)cc1)CC2 | 91.8 |
| COc1ccc(N2CCc3cc(OC)c(OC)cc3C2)cc1 | 77.1 |
| COc1cc2c(cc1OC)C(C)N(c1ccc(C=O)cc1)CC2 (centres undefined) | 66.1 |

[1] COc1cc2c(cc1OC)CN(c1ccccn1)CC2
[2] COC(=O)c1ccccc1N1CCc2cc(OC)c(OC)cc2C1
// pick min by remaining at 10 min: 1 , 2 // respond with label for picked entry
2

[P] COc1cc2c(cc1OC)CN(c1cccc(O)c1)CC2
[Q] COc1cc2c(cc1OC)CN(c1ccc(F)cc1)CC2
# returns the entry with the larger remaining at 10 min; inputs P and Q // respond with label for picked entry
P
(P: 94.7%, Q: 56.8%)

[1] COc1cc2c(cc1OC)CN(c1ccc(CO)cc1)CC2
[2] COc1cc2c(cc1OC)CN(c1cccnc1)CC2
# returns the entry with the larger remaining at 10 min; inputs 1 and 2 // respond with label for picked entry
1
(1: 97.8%, 2: 66.9%)

[1] COc1cc2c(cc1OC)CN(c1ccccc1)CC2
[2] COc1cc2c(cc1OC)C(C)N(c1ccc(CO)cc1)CC2 (centres undefined)
# returns the entry with the larger remaining at 10 min; inputs 1 and 2 // respond with label for picked entry
2
(2: 91.3%, 1: 63.9%)

[P] COc1cc2c(cc1OC)CN(c1ccc(C=O)cc1)CC2
[Q] COc1cc2c(cc1OC)CN(c1cc(C(F)(F)F)cc(C(F)(F)F)c1)CC2
# returns the entry with the larger remaining at 10 min; inputs P and Q // respond with label for picked entry
Q
(Q: 98.7%, P: 61%)

* * *

test: Metabolic stability in mouse liver microsome assessed as compound remaining at 500 uM measured at 10 mins by LC-MS/MS method; format: ADME; settings: liver microsomes, read-out: Stability
readout.label: remaining at 10 min (%)

// worked examples, remaining at 10 min included
| compound | remaining at 10 min, % |
| --- | --- |
| COc1cc2c(cc1OC)C(C)N(c1ccc(C=O)cc1)CC2 (centres undefined) | 15.5 |
| COc1cc2c(cc1OC)CN(c1cc(C(F)(F)F)cc(C(F)(F)F)c1)CC2 | 83.1 |
| COc1cc2c(cc1OC)CN(c1cccnc1)CC2 | 9.5 |

[1] COc1cc2c(cc1OC)C(C)N(c1ccc(F)cc1)CC2 (centres undefined)
[2] COc1cc2c(cc1OC)CN(c1ccc(CO)cc1)CC2
[3] COc1cc2c(cc1OC)CN(c1ccc(F)cc1)CC2
[4] COc1ccc(N2CCc3cc(OC)c(OC)cc3C2)cc1
Put the items in order so that reported remaining at 10 min rises from first to last. Provide the ranking by listing each label in its place in the requested order.
1, 3, 4, 2

* * *

assay: Solubility of compound in PBS at pH 7.0 at 100 uM measured for 20 mins by LC-MS/MS analysis; format: physicochemical
readout.label: solubility at 20 min, 100 µM (µM)

// worked examples, solubility at 20 min, 100 µM included
| compound | solubility at 20 min, 100 µM [µM] |
| --- | --- |
| COc1cc2c(cc1OC)CN(c1cccnc1)CC2 | 78.9 |
| COc1cc2c(cc1OC)C(C)N(c1ccc(F)cc1)CC2 (centres undefined) | 7.6 |
| COc1cc2c(cc1OC)C(C)N(c1ccc(CO)cc1)CC2 (centres undefined) | 89.8 |
| COc1cc2c(cc1OC)CN(c1cccc(O)c1)CC2 | 89.6 |
| COc1ccc(N2CCc3cc(OC)c(OC)cc3C2)cc1 | 3.7 |
| COc1cc2c(cc1OC)CN(c1ccccn1)CC2 | 0.8 |

[P] COc1cc2c(cc1OC)CN(c1ccccc1)CC2
[Q] COc1cc2c(cc1OC)CN(c1ccc(CO)cc1)CC2
// pick min by solubility at 20 min, 100 µM: P , Q // respond with label for picked entry
P
(P: 19.1 µM, Q: 93.9 µM)

[1] COc1cc2c(cc1OC)CN(c1ccc(F)cc1)CC2
[2] COC(=O)c1ccccc1N1CCc2cc(OC)c(OC)cc2C1
[3] COc1cc2c(cc1OC)CN(c1ccc(C=O)cc1)CC2
Arrange these compounds by their solubility at 20 min, 100 µM, starting with the largest number. Provide the ranking by listing each label in its place in the requested order.
1, 2, 3

* * *

target: Amine oxidase [flavin-containing] A (Mus musculus, UniProt Q64133)
Sequence (Q64133 whole entry): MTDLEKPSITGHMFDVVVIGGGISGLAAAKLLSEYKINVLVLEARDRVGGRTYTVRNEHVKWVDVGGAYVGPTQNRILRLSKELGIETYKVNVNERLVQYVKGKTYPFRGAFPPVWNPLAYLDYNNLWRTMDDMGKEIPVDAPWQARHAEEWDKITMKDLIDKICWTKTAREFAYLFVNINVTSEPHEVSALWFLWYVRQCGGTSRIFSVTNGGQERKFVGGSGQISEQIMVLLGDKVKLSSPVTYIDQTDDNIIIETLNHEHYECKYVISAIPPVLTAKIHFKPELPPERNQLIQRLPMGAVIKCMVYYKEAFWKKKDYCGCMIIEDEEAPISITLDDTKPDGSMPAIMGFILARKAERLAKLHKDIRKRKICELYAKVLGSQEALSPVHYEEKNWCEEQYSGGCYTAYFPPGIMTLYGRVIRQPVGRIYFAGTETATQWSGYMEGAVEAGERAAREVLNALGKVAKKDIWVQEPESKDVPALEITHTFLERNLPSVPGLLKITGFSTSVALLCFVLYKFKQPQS
readout.label: IC50

Can you look up the measured IC50 of COc1cc2c(cc1OC)CNCC2 for me?
> 100 µM

* * *

experiment: Metabolic stability in human liver microsome assessed as compound remaining at 500 uM measured at 60 mins by LC-MS/MS method; assay type: ADME; details: liver microsomes, read-out: Stability
readout.label: remaining at 1 h (%)

// worked examples, remaining at 1 h included
| molecule | unit.string | remaining at 1 h |
| --- | --- | --- |
| COc1cc2c(cc1OC)CN(c1ccc(C(=O)O)cc1)CC2 | % | 88.4 |
| COc1cc2c(cc1OC)CN(c1ccc(C=O)cc1)CC2 | % | 9.2 |
| COc1cc2c(cc1OC)CN(c1ccccn1)CC2 | % | 17.7 |
| COc1cc2c(cc1OC)C(C)N(c1ccc(C=O)cc1)CC2 (centres undefined) | % | 18 |

[I] COc1cc2c(cc1OC)CN(c1ccccc1)CC2
[II] COc1cc2c(cc1OC)C(C)N(c1ccc(F)cc1)CC2 (centres undefined)
[III] COc1cc2c(cc1OC)CN(c1cccc(O)c1)CC2
Arrange these molecules by their remaining at 1 h, starting with the largest number. Provide the ranking by listing each label in its place in the requested order.
III, II, I
(III: 72.1%, II: 23.2%, I: 10.5%)
